- TESTED ON: Sodium-dependent serotonin transporter (Rattus norvegicus, UniProt P31652)
- Sequence (P31652 whole entry): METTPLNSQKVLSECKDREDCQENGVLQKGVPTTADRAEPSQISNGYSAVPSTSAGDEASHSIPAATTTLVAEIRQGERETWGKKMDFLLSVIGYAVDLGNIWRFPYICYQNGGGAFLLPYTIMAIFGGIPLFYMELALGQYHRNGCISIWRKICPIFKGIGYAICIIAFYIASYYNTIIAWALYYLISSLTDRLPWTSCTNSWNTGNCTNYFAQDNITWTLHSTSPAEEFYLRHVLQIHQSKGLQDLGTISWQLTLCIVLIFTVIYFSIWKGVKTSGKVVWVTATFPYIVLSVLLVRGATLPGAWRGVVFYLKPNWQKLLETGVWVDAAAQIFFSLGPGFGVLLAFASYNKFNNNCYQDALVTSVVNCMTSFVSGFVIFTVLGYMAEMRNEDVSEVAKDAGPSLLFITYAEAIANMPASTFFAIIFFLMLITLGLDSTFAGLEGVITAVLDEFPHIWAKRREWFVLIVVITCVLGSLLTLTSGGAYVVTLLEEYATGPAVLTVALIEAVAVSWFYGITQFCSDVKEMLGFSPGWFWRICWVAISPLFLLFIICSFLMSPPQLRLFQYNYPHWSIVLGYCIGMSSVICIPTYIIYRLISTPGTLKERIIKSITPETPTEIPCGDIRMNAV
- METHOD SUMMARY: Inhibition of SERT-mediated serotonin uptake in rat synaptosomes
ATTRIBUTE MEASURED: IC50 (µM)
Write down the numeric answer in µM and omit the unit.

For reference, reported IC50 for CC(NC1CC1)C(=O)c1cccc(Cl)c1 (stereo unspecified) stands at 3.18
